biological target: RyR2 (Mus musculus)
Sequence (E9Q401 whole entry): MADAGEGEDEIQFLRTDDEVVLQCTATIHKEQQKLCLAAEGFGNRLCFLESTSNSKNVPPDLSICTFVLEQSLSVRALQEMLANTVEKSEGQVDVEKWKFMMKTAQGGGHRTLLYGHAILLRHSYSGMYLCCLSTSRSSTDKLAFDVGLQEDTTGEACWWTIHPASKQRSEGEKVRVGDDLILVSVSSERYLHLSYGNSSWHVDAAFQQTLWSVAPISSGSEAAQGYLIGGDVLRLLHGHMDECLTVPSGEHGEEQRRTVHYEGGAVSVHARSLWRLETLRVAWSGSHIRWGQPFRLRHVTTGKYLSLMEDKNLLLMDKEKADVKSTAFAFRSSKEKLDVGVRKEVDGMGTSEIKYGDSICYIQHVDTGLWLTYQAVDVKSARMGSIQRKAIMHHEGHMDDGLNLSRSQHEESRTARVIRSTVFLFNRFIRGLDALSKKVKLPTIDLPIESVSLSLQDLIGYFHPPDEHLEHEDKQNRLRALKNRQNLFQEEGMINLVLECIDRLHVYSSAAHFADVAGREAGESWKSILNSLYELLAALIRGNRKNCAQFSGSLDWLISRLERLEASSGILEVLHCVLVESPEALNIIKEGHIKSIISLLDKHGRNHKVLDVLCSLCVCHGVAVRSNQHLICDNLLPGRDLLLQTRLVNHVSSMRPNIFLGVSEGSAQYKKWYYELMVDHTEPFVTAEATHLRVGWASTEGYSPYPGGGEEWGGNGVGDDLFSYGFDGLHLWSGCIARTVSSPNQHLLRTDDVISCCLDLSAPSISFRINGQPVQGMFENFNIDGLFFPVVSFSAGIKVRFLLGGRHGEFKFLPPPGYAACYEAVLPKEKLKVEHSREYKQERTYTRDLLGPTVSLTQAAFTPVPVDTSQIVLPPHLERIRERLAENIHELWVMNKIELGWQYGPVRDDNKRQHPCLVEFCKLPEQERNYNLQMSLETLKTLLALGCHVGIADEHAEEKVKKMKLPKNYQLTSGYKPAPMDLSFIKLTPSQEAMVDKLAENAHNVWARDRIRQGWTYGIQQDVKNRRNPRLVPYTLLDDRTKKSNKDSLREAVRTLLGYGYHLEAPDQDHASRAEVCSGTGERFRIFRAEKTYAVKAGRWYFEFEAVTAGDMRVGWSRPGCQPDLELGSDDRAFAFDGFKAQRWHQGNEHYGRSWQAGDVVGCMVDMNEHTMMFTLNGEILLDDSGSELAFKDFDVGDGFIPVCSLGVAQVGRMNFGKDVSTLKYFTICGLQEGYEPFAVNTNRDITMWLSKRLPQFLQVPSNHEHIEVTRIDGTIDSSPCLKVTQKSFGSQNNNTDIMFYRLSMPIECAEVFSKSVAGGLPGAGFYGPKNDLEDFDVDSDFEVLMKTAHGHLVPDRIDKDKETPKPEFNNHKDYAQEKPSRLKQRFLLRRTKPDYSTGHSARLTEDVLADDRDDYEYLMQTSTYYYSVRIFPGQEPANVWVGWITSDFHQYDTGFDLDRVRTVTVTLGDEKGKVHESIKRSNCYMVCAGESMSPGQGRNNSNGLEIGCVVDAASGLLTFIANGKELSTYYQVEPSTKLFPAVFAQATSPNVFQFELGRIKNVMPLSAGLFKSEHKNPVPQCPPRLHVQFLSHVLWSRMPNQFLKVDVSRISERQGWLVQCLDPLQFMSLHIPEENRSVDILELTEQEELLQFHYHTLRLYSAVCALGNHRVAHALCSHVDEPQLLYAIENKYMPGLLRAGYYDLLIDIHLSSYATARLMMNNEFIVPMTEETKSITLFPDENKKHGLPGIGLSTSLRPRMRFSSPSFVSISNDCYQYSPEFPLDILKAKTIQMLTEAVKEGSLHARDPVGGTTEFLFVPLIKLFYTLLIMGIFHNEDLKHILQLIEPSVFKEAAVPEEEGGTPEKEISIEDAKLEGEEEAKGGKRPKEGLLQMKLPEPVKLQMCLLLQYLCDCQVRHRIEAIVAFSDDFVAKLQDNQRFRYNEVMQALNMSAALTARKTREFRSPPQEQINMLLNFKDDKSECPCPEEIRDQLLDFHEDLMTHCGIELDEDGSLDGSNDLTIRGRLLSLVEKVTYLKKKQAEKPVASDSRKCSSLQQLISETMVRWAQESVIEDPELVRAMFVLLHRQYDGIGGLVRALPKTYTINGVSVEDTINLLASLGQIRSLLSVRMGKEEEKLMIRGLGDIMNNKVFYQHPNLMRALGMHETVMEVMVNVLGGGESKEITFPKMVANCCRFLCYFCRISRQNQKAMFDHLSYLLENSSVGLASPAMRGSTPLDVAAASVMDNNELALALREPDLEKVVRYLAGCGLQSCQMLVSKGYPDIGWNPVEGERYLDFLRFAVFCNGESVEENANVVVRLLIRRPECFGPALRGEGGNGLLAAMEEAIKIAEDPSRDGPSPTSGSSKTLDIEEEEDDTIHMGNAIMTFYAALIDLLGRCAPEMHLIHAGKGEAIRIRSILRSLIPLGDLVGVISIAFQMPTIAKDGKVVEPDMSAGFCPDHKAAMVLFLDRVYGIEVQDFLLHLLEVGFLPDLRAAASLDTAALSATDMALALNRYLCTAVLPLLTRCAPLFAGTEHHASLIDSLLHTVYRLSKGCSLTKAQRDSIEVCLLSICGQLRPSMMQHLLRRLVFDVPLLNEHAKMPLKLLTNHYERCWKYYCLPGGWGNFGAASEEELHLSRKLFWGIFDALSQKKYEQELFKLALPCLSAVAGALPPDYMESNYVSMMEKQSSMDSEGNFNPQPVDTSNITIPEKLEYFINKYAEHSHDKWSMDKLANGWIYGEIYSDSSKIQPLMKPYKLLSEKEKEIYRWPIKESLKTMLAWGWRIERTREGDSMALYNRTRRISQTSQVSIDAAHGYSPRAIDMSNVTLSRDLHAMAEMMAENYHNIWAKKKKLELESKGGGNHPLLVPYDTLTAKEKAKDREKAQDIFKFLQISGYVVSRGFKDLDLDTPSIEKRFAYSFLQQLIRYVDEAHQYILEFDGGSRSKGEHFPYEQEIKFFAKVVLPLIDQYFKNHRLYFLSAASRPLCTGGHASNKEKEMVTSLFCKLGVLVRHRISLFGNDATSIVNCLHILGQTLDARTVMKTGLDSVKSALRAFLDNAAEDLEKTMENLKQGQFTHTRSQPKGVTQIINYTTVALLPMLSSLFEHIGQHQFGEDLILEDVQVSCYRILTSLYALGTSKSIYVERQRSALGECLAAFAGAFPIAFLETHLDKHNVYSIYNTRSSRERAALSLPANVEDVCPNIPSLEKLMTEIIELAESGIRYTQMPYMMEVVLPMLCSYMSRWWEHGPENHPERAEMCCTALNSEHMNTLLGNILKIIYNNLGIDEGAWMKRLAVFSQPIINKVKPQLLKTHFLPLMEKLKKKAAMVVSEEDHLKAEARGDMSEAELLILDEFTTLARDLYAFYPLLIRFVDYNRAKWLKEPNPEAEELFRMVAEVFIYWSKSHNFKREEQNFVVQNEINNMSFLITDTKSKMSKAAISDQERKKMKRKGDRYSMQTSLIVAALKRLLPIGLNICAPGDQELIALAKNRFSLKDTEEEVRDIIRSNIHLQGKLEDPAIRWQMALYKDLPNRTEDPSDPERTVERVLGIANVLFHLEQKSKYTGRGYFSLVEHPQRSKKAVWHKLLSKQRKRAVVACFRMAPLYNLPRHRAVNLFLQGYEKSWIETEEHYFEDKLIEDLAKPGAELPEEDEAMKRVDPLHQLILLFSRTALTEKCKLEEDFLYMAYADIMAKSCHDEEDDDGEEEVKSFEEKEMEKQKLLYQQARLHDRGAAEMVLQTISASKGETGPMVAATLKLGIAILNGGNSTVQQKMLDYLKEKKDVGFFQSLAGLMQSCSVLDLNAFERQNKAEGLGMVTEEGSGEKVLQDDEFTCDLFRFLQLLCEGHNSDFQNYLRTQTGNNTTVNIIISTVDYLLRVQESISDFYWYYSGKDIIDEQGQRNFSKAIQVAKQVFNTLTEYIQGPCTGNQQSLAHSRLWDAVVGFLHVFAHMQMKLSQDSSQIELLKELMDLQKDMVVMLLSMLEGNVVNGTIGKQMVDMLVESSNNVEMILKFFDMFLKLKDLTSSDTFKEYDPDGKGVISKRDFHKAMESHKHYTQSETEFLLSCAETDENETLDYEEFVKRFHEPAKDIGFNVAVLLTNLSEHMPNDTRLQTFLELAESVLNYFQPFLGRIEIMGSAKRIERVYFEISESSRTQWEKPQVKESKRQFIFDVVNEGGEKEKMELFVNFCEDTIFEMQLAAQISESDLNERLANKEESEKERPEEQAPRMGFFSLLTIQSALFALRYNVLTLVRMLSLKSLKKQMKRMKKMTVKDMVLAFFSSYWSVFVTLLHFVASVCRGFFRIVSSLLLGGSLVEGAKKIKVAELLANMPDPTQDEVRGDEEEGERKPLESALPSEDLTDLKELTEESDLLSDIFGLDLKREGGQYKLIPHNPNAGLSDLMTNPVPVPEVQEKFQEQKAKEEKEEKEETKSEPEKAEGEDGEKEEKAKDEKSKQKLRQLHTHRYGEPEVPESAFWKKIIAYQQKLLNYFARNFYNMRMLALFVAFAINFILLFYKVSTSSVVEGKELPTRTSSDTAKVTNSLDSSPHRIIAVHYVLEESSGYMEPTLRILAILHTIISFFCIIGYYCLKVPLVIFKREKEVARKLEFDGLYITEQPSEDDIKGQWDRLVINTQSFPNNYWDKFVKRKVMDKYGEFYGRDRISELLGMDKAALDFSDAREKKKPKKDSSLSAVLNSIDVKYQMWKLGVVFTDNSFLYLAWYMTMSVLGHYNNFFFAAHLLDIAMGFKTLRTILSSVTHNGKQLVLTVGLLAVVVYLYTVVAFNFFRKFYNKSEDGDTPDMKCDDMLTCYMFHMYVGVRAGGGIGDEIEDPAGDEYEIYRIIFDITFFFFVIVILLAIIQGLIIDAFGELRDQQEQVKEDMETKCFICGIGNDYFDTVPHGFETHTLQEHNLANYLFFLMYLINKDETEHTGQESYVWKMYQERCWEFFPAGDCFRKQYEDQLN
reported.property: IC50 (nM)

1. Cc1cc(O)cc(C)c1Cl :: 130

* * *

target: RyR2 (Mus musculus); experiment: ER Ca2+
pEC50: −log10 of the molar value.
reported.property: pEC50

1. Cc1cc(O)cc(C)c1Cl [#1, chloroxylenol] :: 6.52
